This collection of values is drawn from paper PMC3999109.

substrate: CC(=O)CC(=O)SCCNC(=O)CCNC(=O)[C@H](O)C(C)(C)COP(=O)(O)OP(=O)(O)OC[C@H]1O[C@@H](n2cnc3c(N)ncnc32)[C@H](O)[C@@H]1OP(=O)(O)O; assay: purified protein; format: biochemical, Caenorhabditis elegans; settings: 100 µM NADH (saturating), 0.1 M citrate/phosphate pH 7.0, 0.1 mM dithiothreitol, 298 K, 23 nM protein, AACoA 30-70 µM, 25.0 °C

[
  {
    "PROTEIN": "3-hydroxyacyl-CoA dehydrogenase from C. elegans, wild type (enzyme, Caenorhabditis elegans, 3-hydroxyacyl-CoA dehydrogenase (cHAD), Caenorhabditis elegans, WormBase WBGene00010035, GenBank CAA80153.1; N-terminal domain 9-194, loop 195-201 and C-terminal domain 202-297 described in the structure; vector pEXS-CG (derived from pET-22b(+)); also called cHAD; wild type cHAD; not shown: GST, C-terminal, cleaved) MFTAKCAMQNIRNVAIVGSGQMGSGIAQVTASSGFNVMLADVNKKALDRAMKAISQSVTHLSKKQKGTDKEKSDFVTLTMSRIKTCNNVSTAVADADLIIEAAIENIDLKRGIFAQIEQSCKKDSILTTNTSSFLLEDVAKGLQDKTRFGGLHFFNPVPVMKLLEVIRSDDTSDETYATLIKFGTAVGKTTVACKDSPGFIVNRLLIPYFFEAARMYERGDASMTDIDEAMKLGAGHPMGPFELADYIGLDTVKFVMDGWAAKYPEVQLFEASPLVDKLVAEGKLGRKTGDGFYSYKK",
    "UNIT_DESCRIPTOR": "s⁻¹",
    "kcat": 45
  }
]
